Just for reference, paper PMC10397247 is where these values come from.

- system.tested: T1, 4H380-AA
- T1 chain: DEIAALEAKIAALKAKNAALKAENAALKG
- assay.comment: two-hybrid library CCmax;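 also: natural log of median RNA to DNA barcode read ratio; higher means stronger binding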
- assay.conditions: mean of both orientations
Reported interaction score by item:
Answer with the value's number alone.

Worked examples, 3 binders total:
binder="DENAALEAKIAALKAKIAALEAKNAALKG [4H1384-AA]" observed_value=-1.4
binder="DEIAALEAKIAALKAENAALEAKIAALEG [4H341-AA]" observed_value=-1.07
binder="DKNAALKAENAALKAEIAALEAEIAALEG [4H3777-AA]" observed_value=-1.42

Kindly review the next binder as well.
Q: Given DEIAALEAENAALKAKIAALKAENAALEG [4H235-AA] , state its recorded interaction score.
A: -1.71
